Measured melting point of individual entries

Example compounds with recorded melting point:
>>> df
                                   compound  recorded_metric         result
0  CCOc1ncnc2c1sc1nc(N(C)C)c3c(c12)CC(C)(C)CC3    melting point  220 to 221 °C
1                     OC1(CCc2ccccc2)CCOCC1    melting point    74 to 75 °C
2  CCCc1nc2c(N)nc3ccc(-c4cccc(CO)c4)cc3c2s1    melting point  176 to 177 °C

Entry Cn1c(S(=O)(=O)CCCl)nnc1S(=O)(=O)CCCl , melting point reported as 156 °C

Entry O=C(NCCc1ccc(Cl)cc1)c1ncccc1O , melting point reported as 91 to 93 °C

Entry CS(=O)Cc1ccc(C(=O)c2ccc(Cl)cc2)cc1 (stereo unspecified) , melting point reported as 116 to 118 °C

###

Measured melting point of individual entries

                                   molecule  recorded_metric         result
0  COc1cccc2sc(C3CCNC(C)C3)cc12 (centres undefined)    melting point    70 to 73 °C
1  CC(C)(C)[Si](C)(C)OCc1cc(-c2ccc3nc(Cl)cn3c2)cs1    melting point  100 to 104 °C
2   Oc1cc(Nc2nnc(Cc3ccncc3)c3ccccc23)ccc1Cl    melting point  245 to 246 °C
3                Cc1ccc2c(c1)c(=O)oc(=O)n2C    melting point         153 °C
4          CN(C=O)c1ccccc1C(=O)COS(C)(=O)=O    melting point    67 to 69 °C

Entry Cc1cccc(C(=O)NC(Nc2c(Nc3cccnc3Cl)c(=O)c2=O)C(C)(C)C)c1 (centres undefined) , melting point reported as 238 to 239 °C

Entry CCOC(=O)c1ccc(NCCCCCCCCCCCCCC[Si](C)(C)C)cc1 , melting point reported as 91 to 92 °C

Entry Cn1c(C(=O)OC(C)(C)C)c(O)c2cc(OCc3ccccc3)ccc21 , melting point reported as 101 to 103 °C

Entry O=C1COc2cc(C(=O)N3CCOCC3)ccc2N1 , melting point reported as 186 to 188 °C

Entry C[C@H](NP(=O)(Cc1ccccc1)Cc1ccccc1)C(=O)N1CCC[C@H]1C(=O)N1CCC[C@H]1C(N)=O , melting point reported as 89 °C

Entry S=c1nc2ccccn2c(=S)n1-c1ccccn1 , melting point reported as 107 to 109 °C

Entry Cc1ncccc1C(C#N)N1CCN(C(=O)CC(NC(=O)Cc2cccc(OCc3ccc4ccccc4n3)c2)c2ccccc2)CC1 (centres undefined) , melting point reported as 83 to 86 °C

Entry OC1CSC(Oc2ccc(F)nc2)C(O)C1O (centres undefined) , melting point reported as 209 to 210 °C

###

Measured melting point of individual entries

Example compounds with recorded melting point:
>>> df
                       sample_smiles         result
0  COC(=O)c1ccc(-c2nc(CCl)c(C)o2)cc1  130 to 131 °C
1                    COc1cc(N)cnc1Cl    93 to 94 °C

Would you kindly look at the next entry?
Entry COc1ccnc(CSc2nc3cc(-n4ccnc4)c(F)cc3[nH]2)c1 , melting point reported as 86 to 87 °C

###

Measured melting point of individual entries

Example compounds with recorded melting point:
                                   compound         result
0  COc1ccc(CN(C)CCCCc2ccc(NC(=O)c3cccc4c(=O)c5ccccc5n(C)c34)cc2)cc1OC         142 °C
1               CCOC(=O)CSc1nc(O)c(C)c(O)n1  211 to 214 °C

Entry Cc1ccc(=O)n(-c2cc(-c3ccnc(Nc4cccc(Cl)c4)n3)ccn2)n1 , melting point reported as 187 to 189 °C

Entry CCn1c(Oc2cccc(N3CCC4(CC3)OCCO4)c2)nnc1[C@@H](C)NS(=O)(=O)c1ccc(Cl)c(Cl)c1 , melting point reported as 174 to 179 °C

Entry CCOC(=O)C(=O)Nc1c([N+](=O)[O-])sc2ccc(F)cc12 , melting point reported as 129 to 131 °C

Entry N#Cc1ccc(N2C(=O)N(CCF)C3(CCOCC3)C2=O)cc1C(F)(F)F , melting point reported as 192 to 193 °C

Entry O=C(O)C1CSC(c2cc([N+](=O)[O-])ccc2OCCO[N+](=O)[O-])N1 (stereo unspecified) , melting point reported as 99 to 101 °C

Entry CCCCCCc1c(C(=O)O)sc2ccsc12 , melting point reported as 111 to 112 °C

Entry COc1ccc(C=C[N+](=O)[O-])c(Cl)c1OC , melting point reported as 88 to 91 °C

Entry CN1C(=O)N(c2cc(F)ccc2F)C(=O)C1=Cc1ccccc1F , melting point reported as 94 to 97 °C

###

Measured melting point of individual entries

Entry CC(C)CC(C(=O)O)c1cc(Cl)c(-c2ccc(Cl)cc2)c(OCC2CC2)c1 (centres undefined) , melting point reported as 52 to 53 °C

Entry CN(C)C(=O)Nc1cccc(CCC#N)c1 , melting point reported as 159 to 161 °C

Entry CCOC(=O)c1nc(-c2ccc(OC)c(OC)c2)cs1 , melting point reported as 100 to 102 °C

Entry CNC(=C(Br)C#N)c1ccc(Cl)cc1 , melting point reported as 178 °C

Entry CCOP(=O)(/C=C/c1cn(-c2ccccc2)nc1OCc1ccc(OCc2nc(-c3ccc(C(=O)O)cc3)oc2C)c(OC)c1)OCC , melting point reported as 194 to 195 °C

Entry COC(=O)CCCOc1ccc2nc3[nH]c(=O)[nH]c3cc2c1 , melting point reported as 299 to 301 °C

Entry COc1cc(CCC(=O)CC(=O)c2ccc(F)cc2)ccc1O , melting point reported as 56 to 57 °C

Entry Cc1c(-c2ccncc2)[nH]c2c1C(=O)CC(C)(C)C2 , melting point reported as 241 to 242 °C

Entry COc1ccc(S(=O)(=O)C(CCCCCc2ccc(Cl)cc2)C(=O)O)cc1 (centres undefined) , melting point reported as 58 to 65 °C

Entry CC(C)(C)c1nc(C(O)CCC2CCNCC2)c2ccccc2n1 (centres undefined) , melting point reported as 110 °C

Entry CC(=O)NC[C@H]1CN(c2ccc(N3CCC(=C(C)C#N)CC3)c(F)c2)C(=O)O1 , melting point reported as 181 to 182 °C

Entry O=C1Cc2cccc(Oc3ccccc3)c2O1 , melting point reported as 60 to 61 °C

Entry COc1ccc(-c2cc(=O)n(Cc3ccc(F)cc3)nc2-c2ccc(OC)cc2)cc1 , melting point reported as 132 to 133 °C

Entry Clc1ccc(-n2nc3cc(Cl)ccc3c2Cl)c(Cl)c1 , melting point reported as 120 °C

###

Measured melting point of individual entries

Example compounds with recorded melting point:
>>> print(df.to_string())
                                   compound         result
0  Nc1ccn([C@@]2(O)CC=C(P(=O)(O)O)O[C@@H]2CO)c(=O)n1         290 °C
1  CN(C(=O)c1ccc2nonc2c1)[C@H]1CC[C@H](N)CC1  145 to 146 °C
2         COc1ccc(C(=O)C=Cc2cc(Br)ccc2O)cc1  177 to 179 °C

Entry CCCc1c2c(cc3c(=O)cc(C(=O)OCC)oc13)CC(C(=O)OCC)CC2 (configuration not stated) , melting point reported as 89.5 to 90.5 °C

Entry COc1cc2c(cc1OC)C(C(S)(C#N)c1ccc(Cl)cc1)=NCC2 (configuration not stated) , melting point reported as 135 to 136 °C

Entry C=CCNc1nc(NC(=O)C(C)(C)C)c2scc(C)c2n1 , melting point reported as 88 to 89 °C

Entry CC1CN(c2c(F)cc3c(=O)c(C(=O)O)cn(C(C)C)c3c2F)CCN1 (configuration not stated) , melting point reported as 217 to 218 °C

Entry ON=C(c1ccc(Cl)cc1)c1ccc(Cl)cc1Cl , melting point reported as 98 to 100 °C

Entry Cc1cnc(CSc2nc3cc(OC(F)(F)C(F)F)ccc3[nH]2)c(Cl)c1N1CCCCC1 , melting point reported as 170 to 171 °C

Entry CSc1ccc(-c2cc3ncnc(Nc4ccc5[nH]ccc5c4)c3s2)cc1 , melting point reported as 163 to 178 °C

Entry CN(C)CCn1c2c(c3ccccc31)CCS(=O)(=O)CCC2 , melting point reported as 154 to 155 °C

Entry CCOCc1cc2ccc(OC)cc2oc1=O , melting point reported as 64 to 66 °C

Entry O=C(O)C=CC(=O)NCCCCCCCCCCCCCCCCCC(=O)O , melting point reported as 144 to 148 °C

Where these numbers come from: a melting point compilation (Tetko et al.; mined from patent text by program, amines drawn as free bases though some values may be those of a salt)
